Measured log10 fluorescence lifetime, listed per entry for reference.
experiment: solvent given as SMILES; conditions: in C1CCOC1
All values: log10 fluorescence lifetime [ns].

Problem: Need log10 fluorescence lifetime, item Cc1ccc(-c2ccc(-c3ccc(-c4ccc(-c5ccc(C)cc5)cc4)c(/C(=C(/c4ccccc4)c4cc(-c5ccc(-c6ccc(C)cc6)cc5)ccc4-c4ccc(-c5ccc(C)cc5)cc4)c4ccccc4)c3)cc2)cc1
Solution: 0.93

Problem: Check CN(C)c1ccc(/C=C/c2ccc(-c3ccc(/C=C/c4ccc(N(C)C)cc4)s3)s2)cc1 too.
Solution: 0.03

Problem: Okay, and COc1ccccc1C1=C2C(C)=CC(C)=[N+]2[B-](F)(F)n2c(C)cc(C)c21 ?
Solution: 0.81

Problem: What about F[B-]1(F)n2c(-c3cccs3)cc(-c3cccs3)c2N=C2C(c3cccs3)=CC(c3cccs3)=[N+]21 ?
Solution: 0.29

###

test: solvent given as SMILES; settings: in ClC(Cl)Cl
# fluorescence lifetime listing for each entry below
# unit: ns | format: bare number

Problem: Would you kindly share the measured fluorescence lifetime for c1ccc2c(c1)ccc1ccc3ccc4ccccc4c3c12 ?
Solution: 26

Problem: Then CCCCCCCCCCCCOc1cc2c3c(ccc4c5c(N6CCOCC6)cc6c7c(ccc(c1c34)c75)C(=O)N(C1CCCCC1)C6=O)C(=O)N(C1CCCCC1)C2=O ?
Solution: 3.4

Problem: Same for CCCCCCCCN1C(=O)c2ccc3c4c(-c5ccc(-n6c7ccccc7c7ccccc76)cc5)cc5c6c(cc(-c7ccc(-n8c9ccccc9c9ccccc98)cc7)c(c7ccc(c2c37)C1=O)c64)C(=O)N(CCCCCCCC)C5=O
Solution: 3.3

Problem: Item: CC[n+]1c(C=C2C(=O)C(C=C3N(C)c4ccc(Cl)cc4C3(C)C)=C2[O-])[se]c2ccccc21
Solution: 2.14

Problem: Same thing, different molecule: CCCCc1cc(-c2cccc(COC)c2)oc1-c1cccc(-c2cc(CCCC)c(-c3cccc(-c4oc(-c5cccc(-c6oc(-c7cccc(COC)c7)cc6CCCC)c5)cc4CCCC)c3)o2)c1
Solution: 1.35

Problem: Now this one: COc1ccc(C#Cc2ccc(C#Cc3ccc(P(=O)(c4ccccc4)c4ccccc4)cc3)cc2)cc1
Solution: 0.78

Problem: C[Si](C)(C)C#CC(C#C[Si](C)(C)C)=Cc1ccc(C=C(C#C[Si](C)(C)C)C#C[Si](C)(C)C)s1 ?
Solution: 0.3

Problem: Queued: CCN(CC)/C(C)=N\c1ccc2c3c(cccc13)C(=O)c1ccccc1-2
Solution: 8.07

Problem: Thanks! And c1ccc(-c2ccnc(-c3ccccc3)n2)cc1 ?
Solution: 0.6

Problem: And for CCCCCCC(CCCCCC)N1C(=O)c2cccc3c(-c4ccc(OC)c5ccccc45)ccc(c23)C1=O ?
Solution: 4.07

Problem: Try O=P1(c2ccccc2)C(c2cc(C(F)(F)F)cc(C(F)(F)F)c2)=Cc2c3ccc4cccc5ccc(c6cc(-c7ccccc7)n1c26)c3c45 (centres undefined) next.
Solution: 2.4

Problem: For C(#Cc1ccccc1)c1ccccc1 then?
Solution: 3.89

Problem: Next up: C(=C\c1ccc(N(c2ccc(/C=C/c3ccc(N(c4ccccc4)c4ccccc4)cc3)cc2)c2ccc(/C=C/c3ccc(/C=C/c4ccc(N(c5ccc(/C=C/c6ccc(N(c7ccccc7)c7ccccc7)cc6)cc5)c5ccc(/C=C/c6ccc(N(c7ccccc7)c7ccccc7)cc6)cc5)cc4)c4nsnc34)cc2)cc1)/c1ccc(N(c2ccccc2)c2ccccc2)cc1
Solution: 2.08

Problem: How about this molecule: CCCCCCCCN1C(=O)c2ccc3c4c(-c5ccc6c7ccccc7n(-c7ccccc7)c6c5)cc5c6c(cc(-c7ccc8c9ccccc9n(-c9ccccc9)c8c7)c(c7ccc(c2c37)C1=O)c64)C(=O)N(CCCCCCCC)C5=O
Solution: 13.2

###

experiment: solvent given as SMILES; conditions: in C1CCCCC1
So basically every entry gets a class from its fluorescence lifetime, ranges being 1: < 2 ns; 2: ≥ 2 ns and < 4 ns; 3: ≥ 4 ns

COc1ccc(C#Cc2ccc(C#Cc3ccc(P(=O)(c4ccc(C#Cc5ccc(C#Cc6ccc(OC)cc6)cc5)cc4)c4ccc(C#Cc5ccc(C#Cc6ccc(OC)cc6)cc5)cc4)cc3)cc2)cc1 :: 1

Problem: Bin? CC1(C)CC(/N=C/c2ccc3ccc4cccc5ccc2c3c45)CC(C)(C)N1[O]
Solution: 3

Problem: Quick one: CCC(=O)c1ccc2cc(N(C)C)ccc2c1
Solution: 1

Problem: How about this compound: COC(=O)C(Cc1ccc2oc(-c3ccc(-n4c5ccccc5c5ccccc54)cc3)nc2c1)NC(=O)OC(C)(C)C (stereo not drawn)
Solution: 1

Problem: Also COc1ccc2c(c1)-c1cc(OC)ccc1C2=O ?
Solution: 1

###

Overview of recorded fluorescence lifetime for various molecules
experiment: solvent given as SMILES; settings: in CCO
State the answer as a number, implicitly in ns.

c1ccc2c(-c3cncnc3)c3ccccc3c(-c3cncnc3)c2c1 :: 6.4
CN(C)c1ccc2c(-c3cc(C(=O)[O-])ccc3C(=O)[O-])c3ccc(=[N+](C)C)cc-3oc2c1 :: 3.3
CC(C)(C)c1cc(C(C)(C)C)c(-c2nnc(-c3ccc(-n4c5ccccc5c5ccccc54)cc3)o2)c(C(C)(C)C)c1 :: 2.25

Problem: Given the entry CC1(C)CC(/C=C/c2ccc(-n3ccnc3)cc2)=CC(=C(C#N)C#N)C1 , report its measured fluorescence lifetime.
Solution: 0.03

Problem: Likewise for CS1(C)C(/C=C/C2=C(c3ccc(C(=O)O)cc3)C(=C/C=C3/N(CCCCS(=O)(=O)[O-])c4ccccc4S3(C)C)/CCC2)=[N+](CCCCS(=O)(=O)[O-])c2ccccc21 ?
Solution: 0.93

Problem: Quick one: O=C1c2ccccc2-c2ccc(N3CCN(c4ccccc4)CC3)c3cccc1c23
Solution: 0.07

Problem: Next molecule: Cc1cc(-c2nnc(-c3c(C(C)C)cc(C(C)C)cc3C(C)C)o2)ccc1-n1c2ccccc2c2ccccc21
Solution: 1.49

Problem: Continue with CCC1=C(C)C2=Cc3c(I)c(I)cn3[B-](F)(F)[N+]2=C1C
Solution: 0.09

Problem: Moving on to Nc1ccc2c(C(F)(F)F)cc(=O)oc2c1
Solution: 5.38

###

This section presents molecules with their documented fluorescence lifetime values.
assay: solvent given as SMILES; conditions: in c1cc(-c2cccc(-n3c4ccccc4c4ccccc43)c2)cc(-n2c3ccccc3c3ccccc32)c1
API: value field is a number in ns; no unit string.

Worked examples, 2 molecules total:
CC(C)c1cc(C(C)C)c(B2c3cc(N4c5ccccc5C(C)(C)c5ccccc54)ccc3N(c3ccccc3)c3ccc(N4c5ccccc5C(C)(C)c5ccccc54)cc32)c(C(C)C)c1 :: 17
O=C(c1ccc(C(=O)c2ccc(N3c4ccccc4Oc4ccccc43)cc2)cc1)c1ccc(N2c3ccccc3Oc3ccccc32)cc1 :: 26

Query molecule follows.
Problem: Can you share its fluorescence lifetime? I mean this molecule: CC(C)c1cc(C(C)C)c(B2c3cc(-n4c5ccccc5c5ccccc54)ccc3N(c3ccccc3)c3ccc(-n4c5ccccc5c5ccccc54)cc32)c(C(C)C)c1
Solution: 15

###

test: solvent given as SMILES; conditions: in ClC(Cl)Cl
QUANTITY KIND: log10 fluorescence lifetime (log10 of the value in ns)
Hey, these are logged values: log10 of fluorescence lifetime, ns being the unit before logging.

Cc1ccc(C2=C3C=CC(/C=C/c4ccccc4)=[N+]3[B-](F)(F)n3c(/C=C/c4ccccc4)ccc32)cc1 :: 0.67
CCCCCCN1C(=O)c2cccc3c(-c4ccc(-c5cccs5)s4)ccc(c23)C1=O :: -0.25
C#CCNC1=C2C=CC=[N+]2[B-](F)(F)n2cccc21 :: 0.72

Problem: Query: log10 fluorescence lifetime; subject: COc1ccc(-c2cc(-c3ccc(N(C)C)cc3)nc(-c3ccccc3)n2)cc1
Solution: 0.85

Problem: Try the compound CC(C)(C)c1ccc(C2=c3sc(-c4ccc(C(C)(C)C)cc4)c(-c4ccc(C(C)(C)C)cc4)c3=[N+]3C2=Nc2c(-c4ccc(C(C)(C)C)cc4)c4sc(-c5ccc(C(C)(C)C)cc5)c(-c5ccc(C(C)(C)C)cc5)c4n2[B-]3(F)F)cc1
Solution: 0.07

Problem: Let us now turn to CC1(C)C(/C=C/C=C/C=C/C=C2/N(CCCCS(=O)(=O)[O-])c3ccc4ccccc4c3C2(C)C)=[N+](CCCCS(=O)(=O)[O-])c2ccc3ccccc3c21
Solution: 0.06

Problem: Follow-up entry: CCN(CC)c1ccc2c(c1)oc(=O)c1c(-c3ccccc3C(=O)O)c3ccc(=[N+](CC)CC)cc-3oc12
Solution: 0.62

Problem: CCCCCCCCn1c(=O)c2cc3c(C#Cc4ccc(N(c5ccccc5)c5ccccc5)cc4)c4cc5c(=O)n(CCCCCCCC)c(=O)c5cc4c(C#Cc4ccc(N(c5ccccc5)c5ccccc5)cc4)c3cc2c1=O ?
Solution: 0.53

Problem: Next: COc1ccc(C2=c3sc(-c4ccc(OC)cc4)cc3=[N+]3C2=Nc2c(-c4ccc(OC)cc4)c4sc(-c5ccc(OC)cc5)cc4n2[B-]3(F)F)cc1
Solution: 0.23

Problem: Continue with CCCCCCC(CCCCCC)N1C(=O)c2cccc3c(-c4ccc(OC)cc4)ccc(c23)C1=O
Solution: 0.61

Problem: Item: CCCCC1=Cc2c3ccc4cccc5ccc(c6cc(-c7ccccc7)n(c26)P1(=O)c1ccccc1)c3c45 (stereo not drawn)
Solution: 0.20

Problem: Follow-up item: CCCCCCN1C(=O)c2cccc3cc(/N=C\c4ccc(N(c5ccccc5)c5ccccc5)cc4)cc(c23)C1=O
Solution: 1.19

Problem: Field entry: CC\C=C/C=C/C=C/C=C\CCCCCCCC(=O)O
Solution: 0.18

Problem: Repeat with CCCCn1c(=O)c2cc3ccc4cccc5ccc(c2c1=O)c3c45
Solution: 0.74

Problem: Same question for CN(C)c1ccc(-c2cc(-c3ccc4ccccc4c3)nc(-c3ccccc3)n2)cc1 please.
Solution: 0.38

Problem: Next: CCCCN1C(=O)c2cc(Br)c3c4c(Br)cc5c6c(cc(Br)c(c7c(Br)cc(c2c37)C1=O)c64)C(=O)N(CCCC)C5=O
Solution: 0.46

Sourced from the Deep4Chem optical property database
